target: pooled human IgG
propertyMeasured: Enzyme Activity Endpoint Assay (purified): IgG (ng/µL)
# number only, unit ng/µL dropped from output

IN: # Enzyme Activity Endpoint Assay (purified): IgG lookup, item PRT-151 (protein) MANQEIRYSEVTPYHVTSVWTKGVTPPANFTQGEDVFHAPYVANQGWYDITKTFNGKDDLLCGAATAGNMLHWWFDQNKDQIKRYLEEHPDKQKINFNGEQMFDVKEAIDTKNHQLDSKLFEYFKEKAFPYLSTKHLGVFPDHVIDMFINGYRLSLTNHGPTPVKRQTKDPRGGIFDAVFGRGDSTKLLTSRHDFKEKNLKEISDLIKKELTEGKALGLSHTYANVRINHVINLWGADFDSNGNLKAIYVTDSDSNASIGMKKYFVGVNSAGKVAISAKEIKEDNIGAQVLGLFTLSTGQKSWNKTN
OUT: 0

---
IN: # Enzyme Activity Endpoint Assay (purified): IgG lookup, item PRT-654 (protein) MQITSVWTKGVTPLTPEQFRYNNEDVIHAPYLAHQGWYDITKAFDGKDNLLCGAATAGNMLHWWFDQNKTEIEAYLSKHPEKQKIIFNNQELFDLKAAIDTKDSQTNSQLFNYFRDKAFPNLSARQLGVMPDLVLDMFINGYYLNVFKTQSTDVNRPYQDKDKRGGIFDAVFTRGDQTTLLTARHDLKNKGLNDISTIIKQELTEGRALALSHTTGNVSYSHVINLWGADFNAEGNLEAIYVTDSDANASIGMKKYFVGINAHGHVAISAKKIEGENVGAQVLGLFTLSSGKDIWQKLSLEHHHHHH
OUT: 1170

IN: # Enzyme Activity Endpoint Assay (purified): IgG lookup, item IdeS (protein) ANQEIRYSEVTPYHVTSVWTKGVTPPANFTQGEDVFHAPYVANQGWYDITKTFNGKDDLLCGAATAGNMLHWWFDQNKDQIKRYLEEHPEKQKINFNGEQMFDVKEAIDTKNHQLDSKLFEYFKEKAFPYLSTKHLGVFPDHVIDMFINGYRLSLTNHGPTPVKEGSKDPRGGIFDAVFTRGDQSKLLTSRHDFKEKNLKEISDLIKKELTEGKALGLSHTYANVRINHVINLWGADFDSNGNLKAIYVTDSDSNASIGMKKYFVGVNSAGKVAISAKEIKEDNIGAQVLGLFTLSTGQDSWNQTN
OUT: 0

IN: # Enzyme Activity Endpoint Assay (purified): IgG lookup, item PRT-128 (protein) MRNATEAYAKEVPKQITSVWTKGVTPPTPEQFRYNNEDVIHAPYLANQGWYDITKTFNGKDNLLCGAATAGNMLHWWFDQNKTEIEAYLSKHPEKQKIIFNNQELFDLKAAIDTKDSQTNSQLFNYFRDKAFPNLSARQLGVMPDLVLDMFINGYYLNVFKTQSTDVNRPYQDKDKRGGIFDAVFTRGDQTTLLTARHDLKNKTLNDISTLIKQELTEGKALALSHTYANVSISHVINLWGADFNAEGNLEAIYVTDSDANASIGMKKYFVGVNAHGKVAISAKKIEGENIGAQVLGLFTLSSGKDIWQKLS
OUT: 0
